# measured-on: human Y1 receptor (human, UniProt P25929)
# test-method-notes: 125I-PYY displacement, COS-7 membranes; tested only up to 100 nM
measured-quantity: Ki

# Ki lookup, item TPEQMAQYAADLRRYINMLTRPRY [human PP13-36]
> 100 nM
